Tested on: HCT-15
Experiment: In vitro tumor cell proliferation, HCT-15
Assay type: cell-based, human
Conditions: values without *; trihydrochloride; read-out: In vitro Tumor Cell Proliferation (IC50, μM) Colon HCT-15
Experimental: The proliferation of tumor cells was measured using a sulforhodamine B assay as described in Skehan, P., et al., J. Natl. Cancer Inst. […] Tumor cells were harvested with trypsin-EDTA, cells that excluded trypan blue were counted, added to 96-well plates and incubated overnight at 37° C. Drug was added to the wells following dilution in culture medium. […] Alternatively, the CyQUANT cell proliferation assay was used to quantify tumor cell proliferation. […]
Structures can show the parent of a compound that is named as a salt.
outcome.measure: IC50
Express your answer as a number followed by its unit.

Using the record for CC(C)n1cnc2c(NCc3ccccc3)nc(N[C@H]3CC[C@H](N)CC3)nc21 [Example 45, trihydrochloride] , report its IC50. 17 µM

----------
tested on: A549; assay: In vitro tumor cell proliferation, A549; assay type: cell-based, human; conditions: values marked * (mark not explained); dihydrochloride; read-out: In vitro Tumor Cell Proliferation (IC50, μM) Lung A549
Structures can show the parent of a compound that is named as a salt.
outcome.measure: IC50 (µM)
Unit µM implied. Number only.

Query (compound): N[C@H]1CC[C@H](Nc2nc(NCc3cccs3)c3ncn(C4CCCC4)c3n2)CC1 [Example 17, dihydrochloride] ; field requested: IC50 1.6

So what does the record say about IC50 for N[C@H]1CC[C@H](Nc2nc(NCc3ccco3)c3ncn(C4CCCC4)c3n2)CC1 [Example 38, dihydrochloride] ? 1.1

For N[C@H]1CC[C@H](Nc2nc(NCCCCCO)c3ncn(C4CCCC4)c3n2)CC1 [Example 25, dihydrochloride] , what is its reported IC50? 5.5

Param item = CCC(C)(CO)Nc1nc(N[C@H]2CC[C@H](N)CC2)nc2c1ncn2C1CCCC1 (stereo partly shown) [Example 23, dihydrochloride] ; retrieve measured IC50. 10

----------
biological target: cdk2/cyclin E (Homo sapiens); experiment: Cyclin-Dependent Kinase 2 Assay (cdk-2 inhibition); details: GST-Rb substrate, 30 min at 30° C.
pIC50: −log10 of the molar value. Structures can show the parent of a compound that is named as a salt.
Please mark 1 if the recorded pIC50 is equal to or greater than 7, and 0 if it falls below.

Decide: is the reported value of pIC50 for N[C@H]1CC[C@H](Nc2nc(NCC3CCCCC3)c3ncn(C4CCCC4)c3n2)CC1 [Example 22, dihydrochloride] equal to or greater than 7? 0

Kindly determine if pIC50 recorded for N[C@H]1CC[C@H](Nc2nc(NCc3ccc(Cl)cc3Cl)c3ncn(C4CCCC4)c3n2)CC1 [Example 48, dihydrochloride] is above or exactly 7. 0

Determine whether this molecule has pIC50 no lower than 7: N[C@H]1CC[C@H](Nc2nc(NNCCO)c3ncn(C4CCCC4)c3n2)CC1 [Example 14, dihydrochloride] 1

Textbook exercise: given the entry N[C@H]1CC[C@H](Nc2nc(NCCc3cccnc3)c3ncn(C4CCCC4)c3n2)CC1 [Example 7, dihydrochloride] , state whether its pIC50 is greater than or equal to 7. 1

Threshold query (pIC50 >= 7) on CCCCNc1nc(N[C@H]2CC[C@H](N)CC2)nc2c1ncn2C(C)C [Example 37, dihydrochloride] 0

----------
tested on: DU 145; test: In vitro tumor cell proliferation, DU 145; type: cell-based, human; conditions: Homo sapiens, DU-145, read-out: In vitro Tumor Cell Proliferation (IC50, μM) Prostate DUI45, values without *
Where a name gives a salt, the structure may show the parent alone.
outcome.measure: IC50 (µM)
Unit µM implied. Number only.

Which IC50 is reported for this compound? N[C@H]1CC[C@H](Nc2nc(NCc3cccc(I)c3)c3ncn(C4CCCC4)c3n2)CC1 [Example 1, dihydrochloride] 2
